The measurements presented in this section are drawn from the RNAGym collection of RNA variant scans (doi:10.1002/anie.201605470).

B1: Osa-1-4 twister ribozyme (parent)
chain: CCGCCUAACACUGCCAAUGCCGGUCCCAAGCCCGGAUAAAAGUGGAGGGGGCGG

Variants of: B1
Assay: self-cleavage, relative activity (ratio to wild type); higher = more cleavage; co-transcriptional
Rule: self-cleavage under 0.09 gives criterion not met, otherwise criterion met.

chain_sequence="CCGCCUAAUACUGCCAAUGCCGGUCCCCAGCCCGGAUAAAAGUGGAGGGGGCGG [A28C C9U]" class_assignment="criterion met"
chain_sequence="CCGCCUAACACUGCCAAUGUCGGUCCCAAGCCCGGAUAAAAGUGGAAGGGGCGG [C20U G47A]" class_assignment="criterion met"
chain_sequence="CCGCCUAAGACUGCCAUUGCCGGUCCCAAGCCCGGAUAAAAGUGGAGGGGGCGG [A17U C9G]" class_assignment="criterion met"
chain_sequence="CCGCCUAACACUGCCAAUGCCGGUCCCAAGCCCGGAUAAAAGUGGAAGGGGCGU [G47A G54U]" class_assignment="criterion met"
chain_sequence="CCGCCUAAUACAGCCAAUGCCGGUCCCAAGCCCGGAUAAAAGUGGAGGGGGCGG [C9U U12A]" class_assignment="criterion met"
chain_sequence="CCGCCUAACACUGCCAAUGCAGUUCCCAAGCCCGGAUAAAAGUGGAGGGGGCGG [C21A G23U]" class_assignment="criterion not met"
chain_sequence="CCGCCUAACACUGCCACUGCCGGUCCCAAGCCCGGAUAAAAGUGAAGGGGGCGG [A17C G45A]" class_assignment="criterion met"
chain_sequence="CCGCCUAACACUGCCAAUGCCGAUCGCAAGCCCGGAUAAAAGUGGAGGGGGCGG [C26G G23A]" class_assignment="criterion not met"
chain_sequence="CCGCCUAACACUGCCAAUGGCGGUCCCAAGCCCGGAGAAAAGUGGAGGGGGCGG [C20G U37G]" class_assignment="criterion met"
chain_sequence="CCGCCUAACACCGCCAACGCCGGUCCCAAGCCCGGAUAAAAGUGGAGGGGGCGG [U12C U18C]" class_assignment="criterion met"
chain_sequence="CCGCCUAACACUGCCAAUGCCAGUCCCAAGCCCGGAUAAAAGUGGAAGGGGCGG [G22A G47A]" class_assignment="criterion met"
chain_sequence="CCGCCUAACACUGCCAAAGCCUGUCCCAAGCCCGGAUAAAAGUGGAGGGGGCGG [G22U U18A]" class_assignment="criterion met"
chain_sequence="CCGCCUAACACUCCCAAUGCCGGUCCCAAGCACGGAUAAAAGUGGAGGGGGCGG [C32A G13C]" class_assignment="criterion not met"
chain_sequence="CCGCCUAACACUGCCAAUGCCGGUCCCAAGCUCUGAUAAAAGUGGAGGGGGCGG [C32U G34U]" class_assignment="criterion not met"
chain_sequence="CCGCCUAACACUCCCAAUGCCGGUCCCAAGCCCGGAUAAAAAUGGAGGGGGCGG [G13C G42A]" class_assignment="criterion not met"
chain_sequence="CCGCCUAAUACUGCCAAUGCCGGUCCCAAGCCCGGAUAAAAGUGUAGGGGGCGG [C9U G45U]" class_assignment="criterion not met"
chain_sequence="CCGCCUAACACUGCCAAUGCCGGUCCCAAGCCCGGAUGAAAGUGGAGGGAGCGG [A38G G50A]" class_assignment="criterion met"
chain_sequence="CCGCCUAACACUGCCACGGCCGGUCCCAAGCCCGGAUAAAAGUGGAGGGGGCGG [A17C U18G]" class_assignment="criterion met"
chain_sequence="CCGCCUAACACUGCCAAUGCCGGUCCCAAGCGCGGAUAAAACUGGAGGGGGCGG [C32G G42C]" class_assignment="criterion not met"
